Provenance of the data: patent US10906878B2

// values below are reported EGFR activity (% Control, 100 nM drug) L858R
# target.or.system: EGFR L858R Ba/F3 cells (Homo sapiens (Human), UniProt P00533, L858R)
# protocol.description: Ba/F3 cell growth inhibition (MTS assay), EGFR L858R
# Format: cell-based
# settings: 100 nM drug; Table G
measure: EGFR activity (% Control, 100 nM drug) L858R

INSERT INTO results (molecule, target_or_system, value_reported) VALUES
  ('C=CC(=O)Nc1cccc(N(C(=O)NCc2ccccc2)c2cc(Nc3ccc(N4CCN(C)CC4)cc3)ncn2)c1 [Compound 29A]', 'EGFR L858R Ba/F3 cells (Homo sapiens (Human), UniProt P00533, L858R)', '0 % Control'),
  ('C=CC(=O)N1CCC[C@H]1C(=O)Nc1cc2c(N(C)C(=O)Nc3ccccc3)ncnc2cc1OC [Compound 27A]', 'EGFR L858R Ba/F3 cells (Homo sapiens (Human), UniProt P00533, L858R)', '87 % Control'),
  ('C=CC(=O)N1CC[C@H](CN(C(=O)Nc2ccccc2)c2cc(Nc3ccc(N4CCN(C)CC4)cc3OC)ncn2)C1 [Compound 33A]', 'EGFR L858R Ba/F3 cells (Homo sapiens (Human), UniProt P00533, L858R)', '101 % Control'),
  ('C=CC(=O)N1CCC[C@H]1C(=O)Nc1cc2c(N(CCOC)C(=O)NCc3ccccc3)ncnc2cc1OC [Compound 31A]', 'EGFR L858R Ba/F3 cells (Homo sapiens (Human), UniProt P00533, L858R)', '108 % Control');

###

# target.or.system: EGFR Del/T790M Ba/F3 cells (Homo sapiens, UniProt P00533, T790M, cells depend on it, form not given)
# protocol.description: Ba/F3 cell growth inhibition (MTS assay), EGFR Del/T790M
# Assay type: cell-based
# settings: 1.0 μM drug; Assay 1
measure: EGFR activity (% Control, 1.0 μM drug) Assay 1 Del/T790M (% Control)

INSERT INTO results (compound, value_reported) VALUES
  ('C=CC(=O)Nc1cccc(N(C(=O)Nc2ccccc2)c2cc(Nc3ccc(N4CCN(C)CC4)cc3OC)ncn2)c1', 3),
  ('C=CC(=O)Nc1cccc(N(C(=O)Oc2ccccc2)c2ccnc(Nc3ccc(N4CCN(C)CC4)cc3OC)n2)c1 [Compound 10A]', 2),
  ('C=CC(=O)Nc1cccc(N(C(=O)NCc2ccccc2)c2cc(Nc3ccc(N4CCN(C)CC4)cc3OC)ncn2)c1', 1),
  ('C=CC(=O)Nc1cccc(N(C(=O)Nc2ccccc2Cl)c2cc(Nc3ccc(N4CCN(C)CC4)cc3OC)ncn2)c1 [Compound 11A]', 1),
  ('C=CC(=O)Nc1ccc(OC)c(N(C(=O)Nc2c(C)cccc2C)c2cc(Nc3ccc(N4CCN(CC)CC4)cc3)ncn2)c1', 1),
  ('C=CC(=O)Nc1ccc(OC)c(Nc2cc(N(C(=O)Nc3c(C)cccc3C)c3ccc(N4CCN(CC)CC4)cc3)ncn2)c1', 2);

###

# target.or.system: EGFR L858R Ba/F3 cells (Homo sapiens (Human), UniProt P00533, L858R)
# protocol.description: Ba/F3 cell growth inhibition (MTS assay), EGFR L858R
# Type: cell-based
# settings: 100 nM drug; Table F
Label scheme for EGFR activity (% Control, 100 nM drug) L858R: lower than 3 % Control is -1, 3 % Control and above is 1.

INSERT INTO results (compound, classification) VALUES
  ('C=CC(=O)Nc1cccc(Oc2nc(Nc3ccc(N4CCN(C)CC4)cc3OC)ncc2Cl)c1 [WZ4002, reference compound]', -1),
  ('C=CC(=O)Nc1ccc(OC)c(Nc2cc(N(C)C(=O)Nc3ccccc3)ncn2)c1 [Compound 12A]', -1),
  ('COc1ccc(NC(=O)/C=C/CN(C)C)cc1Nc1cc(N(C)C(=O)Nc2ccccc2)ncn1 [Compound 20A]', -1),
  ('C=CC(=O)Nc1ccc(OC)c(Nc2cc(N(C)C(=O)NCc3ccccc3)ncn2)c1 [Compound 16A]', 1),
  ('C=CC(=O)Nc1cccc(Nc2cc(N(C)C(=O)NCc3ccccc3)ncn2)c1 [Compound 17A]', -1),
  ('CN(C)C/C=C/C(=O)Nc1cccc(Nc2cc(N(C)C(=O)Nc3ccccc3)ncn2)c1 [Compound 21A]', 1),
  ('C=CC(=O)Nc1ccc(OC)c(Nc2cc(N(C)C(=O)Nc3ccc(F)c(Cl)c3)ncn2)c1 [Compound 18A]', -1),
  ('COc1ccc(NC(=O)/C=C/CN(C)C)cc1Nc1ncc2c(n1)N(C)C(=O)N(c1ccccc1)C2 [Compound 7A]', 1),
  ('C=CC(=O)Nc1cccc(Nc2cc(N(C)C(=O)Nc3ccc(F)c(Cl)c3)ncn2)c1 [Compound 19A]', 1),
  ('C=CC(=O)Nc1cccc(N(C(=O)Nc2ccccc2)c2cc(NC)ncn2)c1 [Compound 14A]', -1);

###

# target.or.system: UniProt P42681
# Sequence (P42681 whole entry): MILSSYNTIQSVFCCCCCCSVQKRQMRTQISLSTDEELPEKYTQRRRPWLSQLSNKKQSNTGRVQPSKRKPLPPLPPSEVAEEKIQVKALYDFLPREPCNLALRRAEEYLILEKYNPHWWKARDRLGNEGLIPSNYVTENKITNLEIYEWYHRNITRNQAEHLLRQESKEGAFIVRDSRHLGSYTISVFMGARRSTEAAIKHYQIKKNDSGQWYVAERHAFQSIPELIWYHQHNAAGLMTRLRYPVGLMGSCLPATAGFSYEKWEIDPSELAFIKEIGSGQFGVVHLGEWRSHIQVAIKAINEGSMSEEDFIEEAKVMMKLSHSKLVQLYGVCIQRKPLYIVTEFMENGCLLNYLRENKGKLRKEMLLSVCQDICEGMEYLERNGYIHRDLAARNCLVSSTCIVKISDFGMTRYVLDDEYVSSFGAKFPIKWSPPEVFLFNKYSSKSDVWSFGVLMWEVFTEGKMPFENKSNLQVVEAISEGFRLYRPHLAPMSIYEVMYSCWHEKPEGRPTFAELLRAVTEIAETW
# protocol.description: Kinase inhibition TXK
# Type: biochemical
measure: Kinase inhibition (% control, 1000 nM compound) TXK (% control)

INSERT INTO results (molecule, target_or_system, value_reported) VALUES
  ('C=CC(=O)Nc1cc(Nc2nccc(N(C)C(=O)Oc3ccccc3)n2)c(OC)cc1N(C)CCN(C)C [Compound 80A]', 'UniProt P42681', 12),
  ('C=CC(=O)Nc1cccc(N(C(=O)NCc2ccccc2)c2cc(Nc3ccc(N4CCN(C)CC4)cc3OC)ncn2)c1 [Compound 3A]', 'UniProt P42681', 7.4),
  ('C=CC(=O)Nc1cccc(N(C(=O)OCc2ccccc2)c2ccnc(Nc3ccc(N4CCN(C)CC4)cc3OC)n2)c1 [Compound 4A]', 'UniProt P42681', 27),
  ('C=CC(=O)Nc1cccc(N(C(=O)OCc2ccccc2)c2ccnc(Nc3cnn(C)c3)n2)c1 [Compound 83A]', 'UniProt P42681', 3.8);

###

# target.or.system: EGFR Del Ba/F3 cells (Homo sapiens, UniProt P00533, cells depend on it, form not given)
# protocol.description: Ba/F3 cell growth inhibition (MTS assay), EGFR Del
# Format: cell-based
# settings: Assay 1; Del; read-out: EGFR Ba/F3 cells IC 50 (nM) Assay 1 Del
# Experimental: The specific cDNAs encoding the oncogenic alterations (EGFR: Del 19, L858R, L718Q, L844V, Del/T790M, L858R/T790M, Del 19/L718Q, Del 19/L844V, Del 19/T790M/L718Q and L858R/T790M/L718Q; FGFR: TEL-FGFR1, TEL-FGFR2, TEL-FGFR1 V561M, TEL-FGFR2 V561M; ALK: EML4-ALK; ROS1: CD74-ROS1) were cloned into the pDNA-Dual (BD Biosciences) vector using standard molecular biology techniques. […] Growth and inhibition of growth was assessed by MTS assay. […]
measure: IC50 (nM)

INSERT INTO results (compound, measure, value_reported) VALUES
  ('C=CC(=O)Nc1cccc(N(C(=O)N[C@@H](C)c2ccccc2)c2cc(Nc3ccc(N4CCN(C)CC4)cc3OC)ncn2)c1 [Compound 34A]', 'IC50', 19.7),
  ('C=CC(=O)Nc1cccc(Nc2cc(N(C)C(=O)NCc3ccccc3)ncn2)c1 [Compound 17A]', 'IC50', 63.9),
  ('C=CC(=O)Nc1cccc(N(C(=O)Oc2ccccc2)c2ccnc(Nc3ccc(N4CCN(C)CC4)cc3OC)n2)c1 [Compound 10A]', 'IC50', 4.64),
  ('C=CC(=O)Nc1ccc(OC)c(Nc2cc(N(C)C(=O)Nc3ccccc3)ncn2)c1 [Compound 74A]', 'IC50', 5.16),
  ('C=CC(=O)Nc1cccc(N(C(=O)NCc2ccccc2)c2cc(Nc3ccc(N4CCN(C)CC4)cc3OC)nc(Cl)n2)c1 [Compound 78A]', 'IC50', 23.9),
  ('C=CC(=O)Nc1cccc(N(C(=O)OCc2ccccc2)c2ccnc(Nc3ccc(N4CCN(C)CC4)cc3OC)n2)c1', 'IC50', 14.2),
  ('C=CC(=O)Nc1cccc(N(C(=O)NCc2ccccc2)c2cc(NC)ncn2)c1 [Compound 15A]', 'IC50', 91.9),
  ('C=CC(=O)Nc1cccc(N(C(=O)NCc2cccs2)c2cc(Nc3ccc(N4CCOCC4)cc3OC)ncn2)c1 [Compound 55A]', 'IC50', 2),
  ('C=CC(=O)Nc1cccc(N(C(=O)Nc2ccccc2)c2cc(Nc3ccc(N4CCN(C)CC4)cc3OC)ncn2)c1', 'IC50', 6.33),
  ('COc1ccc(NC(=O)/C=C/CN(C)C)cc1Nc1cc(N(C)C(=O)Nc2ccccc2)ncn1 [Compound 20A]', 'IC50', 2.58);

###

// values below are reported IC50
# target.or.system: Ba/F3 TYK2_E957D (Homo sapiens (Human), UniProt P29597, E957D)
# Sequence (P29597 whole entry E957D): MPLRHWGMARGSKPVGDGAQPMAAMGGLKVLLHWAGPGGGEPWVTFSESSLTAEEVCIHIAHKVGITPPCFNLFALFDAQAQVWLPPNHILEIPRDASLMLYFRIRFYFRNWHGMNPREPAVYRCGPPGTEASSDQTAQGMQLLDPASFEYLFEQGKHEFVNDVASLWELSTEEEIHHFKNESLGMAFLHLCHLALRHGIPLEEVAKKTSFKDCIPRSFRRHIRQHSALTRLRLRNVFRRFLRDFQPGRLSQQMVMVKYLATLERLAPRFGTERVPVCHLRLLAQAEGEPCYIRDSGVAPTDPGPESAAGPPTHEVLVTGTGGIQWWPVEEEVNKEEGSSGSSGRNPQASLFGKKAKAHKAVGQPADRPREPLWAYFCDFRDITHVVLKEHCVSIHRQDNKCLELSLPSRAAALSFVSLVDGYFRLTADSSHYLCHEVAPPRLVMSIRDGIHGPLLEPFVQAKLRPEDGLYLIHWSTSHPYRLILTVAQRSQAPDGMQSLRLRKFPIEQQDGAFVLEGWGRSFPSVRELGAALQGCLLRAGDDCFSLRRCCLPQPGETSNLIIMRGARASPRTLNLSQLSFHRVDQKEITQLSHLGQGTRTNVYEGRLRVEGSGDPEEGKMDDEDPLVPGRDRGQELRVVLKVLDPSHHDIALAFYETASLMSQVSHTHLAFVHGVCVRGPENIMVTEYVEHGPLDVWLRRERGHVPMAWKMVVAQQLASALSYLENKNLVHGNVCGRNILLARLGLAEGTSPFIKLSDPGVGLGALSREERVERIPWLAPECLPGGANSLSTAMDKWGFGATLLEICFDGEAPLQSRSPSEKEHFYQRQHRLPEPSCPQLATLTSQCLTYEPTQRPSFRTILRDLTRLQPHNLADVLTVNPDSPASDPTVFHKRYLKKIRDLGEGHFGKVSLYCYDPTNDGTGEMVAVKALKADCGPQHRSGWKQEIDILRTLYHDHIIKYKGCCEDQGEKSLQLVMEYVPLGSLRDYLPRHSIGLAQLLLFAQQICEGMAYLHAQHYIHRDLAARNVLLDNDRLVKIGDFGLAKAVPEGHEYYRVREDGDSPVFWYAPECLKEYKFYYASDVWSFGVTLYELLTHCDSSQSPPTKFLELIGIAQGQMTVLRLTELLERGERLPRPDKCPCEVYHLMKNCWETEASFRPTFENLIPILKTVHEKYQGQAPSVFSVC
# protocol.description: Inhibition of Ba/F3 TYK2_E957D cell line
# Assay type: cell-based
# settings: read-out: IC50 (μM) Ba/F3 TYK2_E957D
# Experimental: Growth and inhibition of growth was assessed by MTS assay. This assay, a colorimetric method for determining the number of viable cells, is based on the bioreduction of 3-(4,5-dimethylthiazol-2-yl)-5-(3-carboxymethoxyphenyl)-2-(4-sulfophenyl)-2H-tetrazolium (MTS) by cells to a formazan product that is soluble in cell culture medium, can be detected spectrophotometrically and was performed according to the manufacturer's recommended conditions. […]
measure: IC50 (µM)

INSERT INTO measurements (compound, measure, units_label, value_reported) VALUES
  ('C=CC(=O)Nc1cccc(N(C(=O)OCc2ccccc2)c2ccnc(Nc3cnn(C)c3)n2)c1 [Compound 83A]', 'IC50', 'µM', 2.95),
  ('C=CC(=O)Nc1cccc(N(C(=O)OCc2ccccc2)c2ccnc(Nc3cnn(C4CCOCC4)c3)n2)c1 [Compound 84A]', 'IC50', 'µM', 4.17),
  ('C=CC(=O)Nc1cccc(N(C(=O)OCc2ccccc2)c2ccnc(Nc3cnn(CCN4CCOCC4)c3)n2)c1 [Compound 85A]', 'IC50', 'µM', 4.37);
